B1: HDV Ribozyme (parent)
chain: GGCCGGCAUGGUCCCAGCCUCCUCGCUGGCGCCGGCUGGGCAACAUUCCGAGGGGACCGUCCCCUCGGUAAUGGCGAAUGGGACCCA

# Variants of: B1
# measurement notes: self-cleavage, relative activity (ratio to wild type); higher = more cleavage; co-transcriptional
I'd be grateful if you could share measured self-cleavage for these entries.
Give bare numbers.

G17C A87C | 0.354
C36G G74U | 0.111
G5A G10A | 0.203
G53A G67C | 1.04
C48G C84U | 0.848

Hello, I would appreciate it if you could give self-cleavage for each entry below.
1. G35A G53U
2. U72G A78G
3. G29U G35A
4. A8U G34C
5. C26A A51G
6. C14A C64A
7. C41G G73U

1. 0.736
2. 0.426
3. 0.0744
4. 0
5. 1.11
6. 0.793
7. 0.378

Please supply self-cleavage for each of the following items, keeping them in order.
1. G1A G34U
2. G25C C44G
3. G5U U60A
4. C7A G80A
5. U20A A56C
6. C30G G31A
7. C4A U79C

1: 0.095; 2: 0.101; 3: 0.447; 4: 0.0739; 5: 0.0519; 6: 0.133; 7: 0

# batch size: 3; output self-cleavage per entry
1. G1A C63G
2. A70U G76C
3. C61U A77C

1. 0.249
2. 1
3. 0.65

Give me self-cleavage for each of these variants, listed below.
1. C63A G80C
2. G25U C63U

1. 0.332
2. 0.163

Quick request: self-cleavage for each listed item, please.
1. C32U U37C
2. U47G C84G
3. G35U A51G
4. U37C G82C

[1.29, 0.475, 0.356, 0.268]

Hi there! I need self-cleavage for each item below, if you can.
1. A16G U27A
2. C36A C66A
3. C84G A87C

1. 0.703
2. 0.151
3. 0.409

Parameter requested: self-cleavage. Apply to each item below.
1. G54U U69G
2. A42C U65C
3. G6U C49U
4. C15G A43G
5. C24A C84U
6. C4A G74A
7. G17C U65G
8. G11C A70G

1.03
0.268
0.485
0.237
0.587
0
0.249
0.0692

Batch of 6 variants: report self-cleavage for each.
1. C7G G40C
2. C57A A71G
3. C19G C44U
4. G17A U72C
5. A45C G53C
6. C4G G50U

1. 0
2. 0.98
3. 0.0563
4. 0.141
5. 0.755
6. 0.527

Quick one: self-cleavage for C30U G40U ? 0.114
